- ASSAY_OVERVIEW: serotonin-gated TRPC4 signal block – cell-based, second counter screen, HEK293 TRPC4/5HT1a, Fluo-4, counter-screen for TRPC4 inhibitor project, confirmation (AID 434978)
- SETUP_CONDITIONS: Fluo-4 calcium flux, at 10 µM, serotonin added to trigger calcium flux; hits give high values
Calls of active or inactive are those of the source.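 The calls were made as follows: active = primary screen active whose calcium signal fell more than 3 SD beyond the full-serotonin control mean in both duplicate plates; inactive = the rest.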
MEASUREMENT_KIND: inhibition

Worked cases, answers included:
- Cc1ccc(C)c2[nH]c(=O)c(CN(CC3CCCO3)C(=S)NCc3ccco3)cc12 (stereo not given): 37.5% (active)
- CCN1CCN(c2ncnc3sc(C)c(-c4ccccc4)c23)CC1: inactive
- Cc1ccc2[nH]c(C)c(CCN(Cc3cccnc3)C(=S)NC(C)(C)C)c2c1: inactive
- NCC(c1ccc(Cl)cc1Cl)c1c[nH]c2ccccc12 (stereo not given): inactive

Report inhibition for every entry below.
1. C=CCSc1nc2c(c(=O)[nH]c(=O)n2C)n1C/C=C(/C)Cl
2. COc1ccc(F)cc1C(=O)C1CCCN(Cc2ccc3c(c2)OCCO3)C1 (stereo not given)
3. Cc1c(N(C)S(=O)(=O)c2cc(C(=O)NCC3CCCO3)ccc2Cl)c(=O)n(-c2ccccc2)n1C (stereo not given)
4. O=C(CN1CCN(c2ncc(C(F)(F)F)cc2Cl)CC1)N1CCN(c2ncc(C(F)(F)F)cc2Cl)CC1
5. O=C1/C(=C/c2ccccc2Cl)SC(=S)N1CCCC(=O)N(CCO)c1ccccc1

## Result
1. 32.5% (active)
2. 38.7% (active)
3. inactive
4. inactive
5. 24.9% (active)

## Task Name the recorded inhibition for `CCCCN(C)CCNC(=O)c1ccc(Cn2c(=S)[nH]c3ccc(Br)cc3c2=O)cc1` .
## Result inactive

----------
- SYSTEM: Short transient receptor potential channel 6 (Mus musculus) (UniProt Q61143)
- Sequence (Q61143 whole entry, looked up): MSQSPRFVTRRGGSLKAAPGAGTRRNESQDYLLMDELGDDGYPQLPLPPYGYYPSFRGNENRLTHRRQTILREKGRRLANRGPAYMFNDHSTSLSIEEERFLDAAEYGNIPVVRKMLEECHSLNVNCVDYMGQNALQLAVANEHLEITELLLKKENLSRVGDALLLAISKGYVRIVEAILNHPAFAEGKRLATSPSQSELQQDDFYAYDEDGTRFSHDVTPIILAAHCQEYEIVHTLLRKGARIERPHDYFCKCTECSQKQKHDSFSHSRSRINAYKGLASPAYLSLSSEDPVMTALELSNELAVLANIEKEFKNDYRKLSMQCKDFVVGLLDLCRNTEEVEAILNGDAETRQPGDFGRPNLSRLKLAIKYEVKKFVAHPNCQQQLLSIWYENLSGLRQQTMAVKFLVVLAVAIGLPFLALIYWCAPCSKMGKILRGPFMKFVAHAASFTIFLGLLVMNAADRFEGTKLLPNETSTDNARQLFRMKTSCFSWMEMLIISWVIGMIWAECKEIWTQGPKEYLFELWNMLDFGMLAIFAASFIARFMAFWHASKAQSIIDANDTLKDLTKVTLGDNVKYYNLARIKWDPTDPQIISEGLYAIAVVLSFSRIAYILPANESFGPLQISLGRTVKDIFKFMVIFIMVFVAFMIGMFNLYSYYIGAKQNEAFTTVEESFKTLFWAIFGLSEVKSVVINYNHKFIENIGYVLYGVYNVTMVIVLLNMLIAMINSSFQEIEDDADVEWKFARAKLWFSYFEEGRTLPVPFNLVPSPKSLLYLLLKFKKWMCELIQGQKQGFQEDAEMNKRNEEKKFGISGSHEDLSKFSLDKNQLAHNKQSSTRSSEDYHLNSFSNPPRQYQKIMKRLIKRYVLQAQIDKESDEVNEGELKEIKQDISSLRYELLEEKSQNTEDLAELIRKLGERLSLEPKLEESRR
- ASSAY_OVERVIEW: TRPC6 blockade by TRPC4 inhibitor hits – cell-based, HEK293, membrane potential dye, duplicate, selectivity assay for TRPC4 inhibitor project, confirmation (AID 434948)
- SETUP_CONDITIONS: HEK293 TRPC6, membrane potential dye fluorescence, at 10 µM, stimulated with maximal-effect acetylcholine
Calls of active or inactive are those of the source.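 Rule for the calls: active = active in primary screen and both duplicates, each dropping signal beyond three positive-control SD with fluorescence still positive; inactive = the rest.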
Select the matching outcome among active, inactive

Consider the worked cases shown below.
• O=C(CCCCn1c(=O)[nH]c2ccccc2c1=O)NC1CCN(Cc2ccccc2)CC1 = inactive
• Cc1oc(-c2ccc(Cl)cc2)nc1CN1CCC(C(=O)NCc2cccs2)CC1 = inactive
• CC1CCc2c(C(=O)N3CCN(S(=O)(=O)c4cccs4)CC3)csc2C1 (stereo unspecified) = inactive
• CCCn1c(=N)n(CC(=O)C(C)(C)C)c2ccccc21 = inactive
• Cc1cccn2cc(-c3c[nH]c4ccccc34)nc12 = active

Now turn to the next compound.
## Task Hi, do you know how `Cc1csc2c(N3CCN(C(=O)Nc4ccc(Cl)c(Cl)c4)CC3)ncnc12` came out in this test?
## Result inactive

----------
- Tested on: TRPC4 beta (transient receptor potential cation channel C4), mouse
- ASSAY_OVERVIEW: potentiation of DAMGO EC20 TRPC4 response – cell-based, Fluo-4, HEK293 TRPC4beta/mu-opioid, confirmation (AID 2555)
- SETUP_CONDITIONS: DAMGO EC20, Fluo-4 calcium flux, at 10 µM
Active and inactive are the calls of the source.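 Rule for the calls: active = primary screen hit whose calcium fluorescence ratio, in both repeats, exceeds the weak agonist control mean by 3 SD; inactive = the rest.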
Select the matching outcome among active, inactive

• CCCc1c(O)nc(SCCN(CC)CC)[nH]c1=O = inactive

## Task Hi, do you know how Cc1ccc(C(=O)NNC(=O)C2CSC3(C)CCC(=O)N23)cc1 (stereo unspecified) came out in this test?
## Result inactive

## Task Same again, this time with CSCC(C)N1CCC(CO)(CCCc2ccccc2)CC1 (stereo unspecified)
## Result inactive

## Task Same again, this time with CC12CCCCN1CCCc1c2[nH]c2ccccc12 (stereo unspecified)
## Result inactive

## Task Same again, this time with `CC(=NCCN1CCN(C(C)=C2C(=O)c3ccccc3C2=O)CC1)C1=C(O)CC(C)(C)CC1=O`
## Result inactive

## Task Same again, this time with `CC[n+]1c(/C=C/Nc2ccccc2)sc2ccccc21`
## Result inactive

## Task Same again, this time with `CSc1nsc(NC(=O)Cc2ccccc2)n1`
## Result inactive

----------
- SYSTEM: Short transient receptor potential channel 4 (Mus musculus)
- ASSAY_OVERVIEW: blockers of DAMGO-evoked TRPC4 calcium flux – cell-based, Fluo4, HEK293 TRPC4beta/mu-opioid, confirmation (AID 2636)
- SETUP_CONDITIONS: at 10 µM
Calls of active or inactive are those of the source.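 How the source made its calls: active means calcium signal cut by more than 3 SD below the full-agonist control yet still positive, in both repeats and the earlier primary screen; inactive means the rest.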
Select the matching outcome among TRUE for active, FALSE for inactive

Consider the worked cases shown below.
* Cc1cc(Cl)cc(Cl)c1OCCCCN(C)C | FALSE
* COc1ccc([N+](=O)[O-])cc1NCc1ccco1 | TRUE
* COc1cccc(OCC(=O)NC2CCCCC2)c1 | FALSE

## Task Hi, do you know how `O=C(COC(=O)c1cccc([N+](=O)[O-])c1)c1ccc2c(c1)OCO2` came out in this test?
## Result TRUE

## Task Same again, this time with `COC(=O)C1CCN(Cc2cn(-c3ccccc3)nc2-c2ccc3c(c2)OCO3)CC1`
## Result FALSE

## Task Same again, this time with CN(C)C(CNC(=O)CCS(=O)(=O)c1ccccc1)c1ccccc1 (configuration not stated)
## Result FALSE

## Task Same again, this time with `Cc1ccc(CNC(=O)CSc2nc(=O)n3ccccc3n2)cc1`
## Result FALSE

## Task Same again, this time with CC(C1CC2CCC1C2)n1c(-c2cccs2)n[nH]c1=S (configuration not stated)
## Result TRUE

----------
- SYSTEM: Short transient receptor potential channel 6 (Mus musculus) (UniProt Q61143)
- ASSAY_OVERVIEW: TRPC6 blockade by TRPC4 inhibitor hits – cell-based, HEK293, membrane potential dye, duplicate, selectivity assay for TRPC4 inhibitor project, confirmation (AID 434948)
- SETUP_CONDITIONS: HEK293 TRPC6, membrane potential dye fluorescence, at 10 µM, stimulated with maximal-effect acetylcholine
Calls of active or inactive are those of the source.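 Rule for the calls: active = active in primary screen and both duplicates, each dropping signal beyond three positive-control SD with fluorescence still positive; inactive = the rest.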
Select the matching outcome among active, inactive

Consider the worked cases shown below.
• Cc1ccc(N2CCN(C(=O)c3ccccc3F)CC2)c(C)c1 = inactive
• Cc1nc2scc(-c3ccccc3)c2c(=O)n1N=C1C=CC(=O)C=C1 = inactive
• Cc1nn(C)c(C)c1Sc1ccc(Br)cc1 = inactive

## Task Hi, do you know how CC(Nc1nc(N2CCCC2)nc2ccccc12)c1ccccc1 (centres undefined) came out in this test?
## Result inactive

## Task Same again, this time with `CC(=O)Oc1ccc(/C=C(\NC(=O)c2ccco2)C(=O)NCc2ccccc2)cc1`
## Result inactive

## Task Same again, this time with COc1ccc(C(CNC(=O)c2ccc3c(c2)OCCO3)N(C)C)cc1 (centres undefined)
## Result inactive

## Task Same again, this time with CC1=C(C(=O)NCCN2CCN(C)CC2)C2(CCC(C)CC2)OC1=O (centres undefined)
## Result inactive

----------
- Tested on: TRPC4 (mouse), co-expressed with 5HT1a in HEK293
- ASSAY_OVERVIEW: enhancement of serotonin-evoked TRPC4 response – cell-based, second counter screen, HEK293 TRPC4/5HT1a, Fluo-4, counter-screen for TRPC4 potentiator project, confirmation (AID 434979)
- SETUP_CONDITIONS: Fluo-4 calcium flux, at 10 µM, serotonin added at its EC20 dose
Calls of active or inactive are those of the source.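 How the source made its calls: active means signal rise over 3 SD above mean of control wells given weak agonist, in both repeats and first screen; inactive means the rest.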
Select the matching outcome among True = active, False = inactive

## Task Hi, do you know how CN(CCc1ccccn1)C(=O)CC1C(=O)NCCN1Cc1ccc(-c2ccccc2)cc1 (centres undefined) came out in this test?
## Result False

## Task Same again, this time with `CCN(CC)CCN(Cc1cc2cc3c(cc2[nH]c1=O)OCCO3)C(=O)NC1CCCCC1`
## Result False

## Task Same again, this time with OCC1(Cc2ccccc2)CCCN(Cc2cnn(-c3ccccc3)c2)C1 (centres undefined)
## Result False

## Task Same again, this time with `CNc1nc(N2CCc3ccccc32)ncc1F`
## Result True

## Task Same again, this time with Cc1ccc(S(=O)(=O)NC(C(=O)Oc2cc3oc(=O)cc(C)c3cc2Cl)C(C)C)cc1 (centres undefined)
## Result False

## Task Same again, this time with `CC(=O)Nc1nc2ccc(S(=O)(=O)N3CCCCC3)cc2s1`
## Result False

## Task Same again, this time with COc1cccc(C(=O)NC2CCCN(C3Cc4ccccc4C3)C2)c1OC (centres undefined)
## Result False

## Task Same again, this time with `c1ccc(CN2CCN(c3nc4ccccc4s3)CC2)cc1`
## Result True

## Task Same again, this time with COc1ccc(OCC(=O)NC2CCCN(Cc3ccc(Cl)cc3)C2)cc1 (centres undefined)
## Result True

## Task Same again, this time with `Cc1ccc2nc(C)cc(Nc3ccc4c(c3)OCCO4)c2c1`
## Result False

## Task Same again, this time with `Cc1ccc(N(CC(=O)NC2CCCC2)C(=O)CNC(=O)c2cccs2)cc1F`
## Result False

## Task Same again, this time with `C=CCOc1ccc(CN(C)Cc2nc3cc(C(F)(F)F)ccc3c(=O)[nH]2)cc1`
## Result True

## Task Same again, this time with CCOC(=O)C1=C(C)N(c2ccccc2)C(=O)NC1c1cccc([N+](=O)[O-])c1 (centres undefined)
## Result True

## Task Same again, this time with `Cc1[nH]nc(Nc2ccccc2)c1[N+](=O)[O-]`
## Result True

## Task Same again, this time with CCCCNCC1C(Oc2ccc(Cl)cc2)C(=O)N1c1ccccc1C (centres undefined)
## Result False

## Task Same again, this time with `CCOCCCNCc1ccc(OCc2ccccc2Cl)cc1`
## Result False

## Task Same again, this time with Cc1ccn(CC(=O)NC2CCCN(Cc3ccc(CC(C)C)cc3)C2)n1 (centres undefined)
## Result False

## Task Same again, this time with `c1ccc(COC(CN2CCCCCC2)CN2CCCCCC2)cc1`
## Result False

The origin of these recorded values is PubChem BioAssay.
